Conditions: human gut metagenome, 24 h, 2 µM; further: call rule not given here
RESULT_TYPE: Bacterial Biotransformation

CCN(CC)CC#CCOC(=O)C(O)(c1ccccc1)C1CCCCC1.Cl (centres undefined) [OXYBUTYNIN CHLORIDE]    Compound metabolized
CN1CCc2cccc3c2[C@H]1Cc1ccc(O)c(O)c1-3    Compound NOT metabolized
CCCC(=O)Nc1ccc(OCC(O)CNC(C)C)c(C(C)=O)c1 (centres undefined)    Compound metabolized
Cc1ccc(/C(=C\CN2CCCC2)c2ccccn2)cc1    Compound NOT metabolized
Nc1c2c(nc3ccccc13)CCCC2    Compound metabolized
CC(C)OC(=O)C(C)(C)Oc1ccc(C(=O)c2ccc(Cl)cc2)cc1 [FENOFIBRATE]    Compound metabolized

Could you share which Bacterial Biotransformation value was measured for "CN1CCc2c(c3ccccc3n2Cc2ccccc2)C1.CN1CCc2c(c3ccccc3n2Cc2ccccc2)C1.O=S(=O)(O)c1cccc2c(S(=O)(=O)O)cccc12" ?
Compound NOT metabolized

Give its Bacterial Biotransformation value. Item: OC(CCN1CCCCC1)(c1ccccc1)C1CC2C=CC1C2 (centres undefined)
Compound NOT metabolized

Entry under review: Br.CN(C)CCCC1(c2ccc(F)cc2)OCc2cc(C#N)ccc21 (centres undefined) [CITALOPRAM HYDROBROMIDE] . Reported Bacterial Biotransformation?
Compound NOT metabolized

###

Conditions: human gut metagenome, 24 h, 2 µM
RESULT_TYPE: Bacterial Biotransformation

# annotated cases, reported Bacterial Biotransformation shown
CC(C)c1nc(CN(C)C(=O)N[C@H](C(=O)N[C@@H](Cc2ccccc2)C[C@H](O)[C@H](Cc2ccccc2)NC(=O)OCc2cncs2)C(C)C)cs1    Compound metabolized
CC(C)NCC(O)COc1ccc(COCCOC(C)C)cc1.CC(C)NCC(O)COc1ccc(COCCOC(C)C)cc1.O=C(O)/C=C/C(=O)O (stereo unspecified) [BISOPROLOL FUMARATE]    Compound NOT metabolized
CN1C(C(=O)Nc2ccccn2)=C(O)c2sccc2S1(=O)=O    Compound NOT metabolized
CN1C[C@H](C(=O)N[C@]2(C)O[C@@]3(O)[C@@H]4CCCN4C(=O)[C@H](Cc4ccccc4)N3C2=O)C=C2c3cccc4[nH]cc(c34)C[C@H]21.CN1C[C@H](C(=O)N[C@]2(C)O[C@@]3(O)[C@@H]4CCCN4C(=O)[C@H](Cc4ccccc4)N3C2=O)C=C2c3cccc4[nH]cc(c34)C[C@H]21.O=C(O)C(O)C(O)C(=O)O [ERGOTAMINE TARTRATE]    Compound metabolized
CCOc1ccc(NC(C)=O)cc1    Compound NOT metabolized

Next:
Given the compound "O=C(O)CCc1nc(-c2ccccc2)c(-c2ccccc2)o1" , what is its reported Bacterial Biotransformation?
Compound NOT metabolized

###

Conditions: human gut metagenome, 24 h, 2 µM
RESULT_TYPE: Bacterial Biotransformation

Guide cases for Bacterial Biotransformation, answers given:
Clc1ccc(Cn2c(CN3CCCC3)nc3ccccc32)cc1 [CLEMIZOLE]    Compound metabolized
CC(C)NCC(O)COc1ccc(COCCOC(C)C)cc1.CC(C)NCC(O)COc1ccc(COCCOC(C)C)cc1.O=C(O)/C=C/C(=O)O (stereo not drawn) [BISOPROLOL FUMARATE]    Compound NOT metabolized
Cc1ccc(/C(=C\CN2CCCC2)c2ccccn2)cc1 [TRIPROLIDINE]    Compound NOT metabolized
CC(C)(C)NC[C@H](O)COc1ccccc1C1CCCC1.CC(C)(C)NC[C@H](O)COc1ccccc1C1CCCC1.O=S(=O)(O)O [PENBUTOLOL SULFATE]    Compound metabolized
O=C1NCC2(CCN(CCc3ccccc3)CC2)O1 [FENSPIRIDE]    Compound NOT metabolized
CN1C(=O)CC(C)(c2ccccc2)C1=O (stereo not drawn) [METHSUXIMIDE]    Compound NOT metabolized

Which Bacterial Biotransformation value belongs to OCCN1CCN(CCCN2c3ccccc3Sc3ccc(C(F)(F)F)cc32)CC1 [FLUPHENAZINE] ?
Compound metabolized

Give its Bacterial Biotransformation value. Item: CNC(=C[N+](=O)[O-])NCCSCc1ccc(CN(C)C)o1 [RANITIDINE]
Compound metabolized
